Molecular target: Recombinant CKL4 kinase (Arabidopsis thaliana)
Assay: In vitro phosphorylation assay of CKL4 (32P phosphorylation of casein)
Format: biochemical
attributeMeasured: IC50

For the compound COc1cc(OC)c(C=C2C(O)=Nc3ccccc32)c(OC)c1 [IC261, reference compound] , give its measured IC50 value.
6.7 µM

====

Biological target: CKL1 (Arabidopsis thaliana)
Sequence (P42158 whole entry): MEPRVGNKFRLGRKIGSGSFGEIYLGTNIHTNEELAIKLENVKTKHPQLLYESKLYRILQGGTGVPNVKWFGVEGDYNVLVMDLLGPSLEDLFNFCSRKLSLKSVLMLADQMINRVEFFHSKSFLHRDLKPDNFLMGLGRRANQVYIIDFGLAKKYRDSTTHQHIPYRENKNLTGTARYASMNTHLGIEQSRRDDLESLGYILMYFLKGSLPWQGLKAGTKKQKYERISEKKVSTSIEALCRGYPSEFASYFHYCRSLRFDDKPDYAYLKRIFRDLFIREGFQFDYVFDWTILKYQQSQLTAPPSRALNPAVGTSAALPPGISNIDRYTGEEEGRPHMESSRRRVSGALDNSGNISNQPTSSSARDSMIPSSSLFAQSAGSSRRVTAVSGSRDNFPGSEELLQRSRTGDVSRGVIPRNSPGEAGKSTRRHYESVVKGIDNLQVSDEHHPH
attributeMeasured: pIC50
One number for each entry, as −log10 of the molar value.

For the compound C#CCn1c2c(c(Br)c1-c1ccncc1)C(=O)NCC2.Cl [AMI‐331] , give its measured pIC50 value.
5.85

====

Biological target: Recombinant CKL4 kinase (Arabidopsis thaliana)
Sequence (Q8LPI7 1-414): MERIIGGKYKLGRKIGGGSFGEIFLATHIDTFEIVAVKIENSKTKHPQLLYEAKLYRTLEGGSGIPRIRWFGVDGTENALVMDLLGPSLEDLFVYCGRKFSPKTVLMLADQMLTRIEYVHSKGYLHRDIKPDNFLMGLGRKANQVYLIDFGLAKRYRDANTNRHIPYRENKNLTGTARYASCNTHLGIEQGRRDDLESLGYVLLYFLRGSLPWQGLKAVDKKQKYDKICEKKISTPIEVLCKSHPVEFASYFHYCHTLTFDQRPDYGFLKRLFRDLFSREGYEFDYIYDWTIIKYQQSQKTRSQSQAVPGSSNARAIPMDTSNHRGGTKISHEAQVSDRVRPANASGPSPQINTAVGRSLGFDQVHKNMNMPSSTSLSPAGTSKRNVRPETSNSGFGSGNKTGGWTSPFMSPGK
Experiment: In vitro phosphorylation assay of CKL4 (32P phosphorylation of casein)
Format: biochemical
Settings: recombinant CKL4, casein, 32P‐ATP, 37°C for 2 hr; read-out: IC50 for in vitro CKL4 kinase activity
attributeMeasured: IC50 (nM)
One number for each entry, in nM.

- compound: "C#CCn1c2c(c(Br)c1-c1ccncc1)C(=O)NCC2.Cl"
  targetOrTestSystem: "Recombinant CKL4 kinase (Arabidopsis thaliana)"
  IC50, nM: 700
- compound: "C#CCn1c(-c2ccncc2)cc2c1CCNC2=O"
  targetOrTestSystem: "Recombinant CKL4 kinase (Arabidopsis thaliana)"
  IC50, nM: 1200
- compound: "Cl.O=C1NCCc2[nH]c(-c3ccncc3)cc21"
  targetOrTestSystem: "Recombinant CKL4 kinase (Arabidopsis thaliana)"
  IC50, nM: 5900
- compound: "O=C1NCCc2[nH]c(-c3ccncc3)c(Br)c21"
  targetOrTestSystem: "Recombinant CKL4 kinase (Arabidopsis thaliana)"
  IC50, nM: 700

Now examine the next entry.
For the compound Nc1nccc(-c2c(-c3ccc(F)cc3)ncn2C2CCCCC2)n1 [PF‐670462, reference compound] , give its measured IC50 value.
800

The measurements presented in this section are drawn from paper PMC6747015.
